src = ChEMBL document CHEMBL1132961

Item-by-item account of pEC50
# System: Human immunodeficiency virus 1
# EXPERIMENTAL DETAILS: Effective concentration at which 50% of the HIV-IIIB-infected human lymphocyte-derived CEM cells protected from HIV-1 infection
# TEST SETTINGS: Human immunodeficiency virus 1, CCRF-CEM
pEC50: −log10 of the molar value.
PARAMETER: pEC50

>>> endpoint_result("Cc1cc(SC2=C(O)OC(CCc3ccc(O)cc3)(C(C)C)CC2=O)c(C(C)(C)C)cc1N (centres undefined)")
6.00
>>> endpoint_result("Cc1cc(SC2=C(O)OC(CCc3ccc(O)cc3)(C(C)C)CC2=O)c(C(C)(C)C)cc1OS(=O)(=O)c1ccc(C#N)cc1 (centres undefined)")
6.22
>>> endpoint_result("CCNS(=O)(=O)Oc1cc(C(C)(C)C)c(SC2=C(O)OC(CCc3ccccc3)(C(C)C)CC2=O)cc1C (centres undefined)")
6.10
>>> endpoint_result("Cc1cc(SC2=C(O)OC(CCc3ccccc3)(C(C)C)CC2=O)c(C(C)(C)C)cc1NS(=O)(=O)c1ccc(C(F)(F)F)cn1 (centres undefined)")
6.22
